Data origin, for the record: the supplement of paper PMC11208160

# assayNotes: recombinant barcode read abundance after kanamycin selection (control-corrected) (log10(CPM+1)); higher = more efficient recombination; sequences stand for … in AGTGCAGAGAAAATCGGCCAGTTTTCTCTGCCTGCAGTCCGCATGCCGT…AGATTTATGCAGCGGACTGCCTTTCTCCCAAAGTGATAAACCGGACAGTATCATGGACCGGTTTTCCCGGTAATCCGTATTTGCAAGGTTGGTTTCACT; site = the 11-nt target;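 further: IS621 recombinase and bridge RNA in Escherichia coli cells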
The threshold is inclusive: recombinant barcode read abundance (log10) of exactly 0.4 counts as Satisfied; values below receive Not satisfied.

Some entries whose results are on file:
[[record]]
sequence = "ACAAAACCTTGGGTTCTAACCTGTTGCCT (site ACAAACCCTAG)"
cat = "Satisfied"

[[record]]
sequence = "CTACGGTCTTGGGTTCTAACCTGTTGCAC (site CTACGTTCTGT)"
cat = "Not satisfied"

[[record]]
sequence = "TATTGGACTTGGGTTCTAACCTGTTGCAT (site TATTGGACTTT)"
cat = "Not satisfied"

[[record]]
sequence = "ATACCACCTTGGGTTCTAACCTGTTGCCT (site AGACCACCTAG)"
cat = "Satisfied"


Then this sequence:
Quick check: does GTTTGTTCTTGGGTTCTAACCTGTTGCCT (site GTTTGATCTAG) have recombinant barcode read abundance (log10) greater than or equal to 0.4?
Not satisfied

* * *

Recorded recombinant barcode read abundance (log10) values for a group of sequences are listed next.
# assayNotes: recombinant barcode read abundance after kanamycin selection (control-corrected) (log10(CPM+1)); higher = more efficient recombination; sequences stand for … in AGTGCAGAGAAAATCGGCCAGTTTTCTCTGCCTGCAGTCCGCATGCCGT…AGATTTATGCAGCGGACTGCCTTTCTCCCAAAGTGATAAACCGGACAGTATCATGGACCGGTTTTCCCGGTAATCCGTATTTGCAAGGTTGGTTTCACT; site = the 11-nt target
Please give the numeric answer without any surrounding text.

Below, each entry is followed by its recorded recombinant barcode read abundance (log10) result.
[[record]]
sequence = "TCGTCACCTTGGGTTCTAACCTGTTGCAT (site TCGTCACCTAT)"
observedvalue = 0.0694

[[record]]
sequence = "CGTTCACCTTGGGTTCTAACCTGTTGCAT (site CGTTCACCTAT)"
observedvalue = 0.499

[[record]]
sequence = "CTAGCAGCTTGGGTTCTAACCTGTTGCAT (site CTAGCAACTAA)"
observedvalue = 0.197

[[record]]
sequence = "TAGAAAGCTTGGGTTCTAACCTGTTGCCA (site TAGAAAGCTTG)"
observedvalue = 0.633

[[record]]
sequence = "ACTTCCACTTGGGTTCTAACCTGTTGCCT (site ACTTCCACTAG)"
observedvalue = 0.613


Consider now this further sequence.
Consider the sequence GCGGCTCCTTGGGTTCTAACCTGTTGCAT (site GCGTCTCCTAT) and give its recorded recombinant barcode read abundance (log10).
0.331

* * *

# assayNotes: recombinant barcode read abundance after kanamycin selection (control-corrected) (log10(CPM+1)); higher = more efficient recombination; sequences stand for … in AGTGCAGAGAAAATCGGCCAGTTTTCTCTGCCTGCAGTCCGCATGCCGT…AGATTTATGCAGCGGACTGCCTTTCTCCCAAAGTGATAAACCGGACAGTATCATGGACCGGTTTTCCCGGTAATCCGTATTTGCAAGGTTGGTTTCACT; site = the 11-nt target
Listing: recombinant barcode read abundance (log10) of selected sequences
Quick one: just the number, no unit, thanks!

Worked cases, answers included:
[[record]]
sequence = "TCTCAGTCTTGGGTTCTAACCTGTTGCGG (site TCTCAGTCTCC)"
observedvalue = 1.14

[[record]]
sequence = "ATCACACCTTGGGTTCTAACCTGTTGCCT (site CTCACACCTAG)"
observedvalue = 0.102

[[record]]
sequence = "GGTTGCCCTTGGGTTCTAACCTGTTGCGG (site GGTTGCCCTCC)"
observedvalue = 0.946

[[record]]
sequence = "CTAGATTCTTGGGTTCTAACCTGTTGCAT (site CTAGATTCTAT)"
observedvalue = 2.61


Identify measured recombinant barcode read abundance (log10) associated with CGCCTGCCTTGGGTTCTAACCTGTTGCCT (site CGCCAGCCTAG)
0.119

Recall and state the measured recombinant barcode read abundance (log10) for CTAATATCTTGGGTTCTAACCTGTTGCCA (site CTAATATCTTG) .
0.0293

Provide one value: measured recombinant barcode read abundance (log10) of CGAGGACCTTGGGTTCTAACCTGTTGCCT (site CGAGGACCTAG)
2.3

Tell me its recombinant barcode read abundance (log10) given GACCGTCCTTGGGTTCTAACCTGTTGCTT (site GACCGTCCTAC) as the entry.
0.447

Given the sequence AGTCGTACTTGGGTTCTAACCTGTTGCCT (site AGACGTACTAG) , write its reported recombinant barcode read abundance (log10).
0.166

Determine from records and report recombinant barcode read abundance (log10) for TAGGCTCCTTGGGTTCTAACCTGTTGCAC (site TAGGCTCCTCT)
0.0904
